- Tested on: RXF 393 renal
- ASSAY_PROCEDURE: NCI tumour cell line growth inhibition, 48 h
MEASURE: GI50

COMPOUND	MEASUREMENT
O=C(Nc1ccccc1)NS(=O)(=O)c1ccc(N2N=C3c4ccccc4CC3C2c2ccccn2)cc1 (stereo unspecified)	45300 nM
Cc1ccc2c(Nc3cccc(Cl)c3F)ncc(NC(=O)c3csc4c(N)ncnc34)c2c1	> 100000 nM
ClC1=NC(Cl)C(Cl)=N/C1=N\c1ncn[nH]1 (stereo unspecified)	1710 nM
O=c1oc2ccc(Cl)cc2c(=O)n1-c1cc(C(F)(F)F)cc(C(F)(F)F)c1	228 nM
O=C(NNc1ccccc1)OCc1ccccc1	91600 nM
C[C@H]1[C@H](C)CC[C@]2(C(=O)O)CC[C@]3(C)C(=CC[C@@H]4[C@@]5(C)CC[C@H](OC(=O)/C=C/c6ccc(O)cc6)C(C)(C)[C@@H]5CC[C@]43C)[C@H]12	1830 nM

###

- System: NCI-H226 lung
- ASSAY_PROCEDURE: NCI tumour cell line growth inhibition, 48 h
MEASURE: TGI

In [3]: df
Out[3]:
                                    compound  measured_target  measurement
 0  COc1cc(/C=C/c2ccc(OC(C)=O)cc2)cc(OC)c1OC    NCI-H226 lung     > 100 µM
 1  CCCNC(C#N)c1ccc(OCCCCCCCCCCOc2ccc(C(C#N)NCCC)cc2)cc1 (stereo unspecified)    NCI-H226 lung      93.9 µM
 2  CC(C)c1c(O[Si](C(C)C)(C(C)C)C(C)C)c2c3c(ccc4c3c1OC4(C)C)C(C)CC2 (stereo unspecified)    NCI-H226 lung     > 100 µM
 3  CC1(O)CC2(O)C=CC3=C(C(=O)c4cccc(O)c4C3=O)C2(O)C(=O)C1O (stereo unspecified)    NCI-H226 lung      17.6 µM
 4          O=C(O)c1nc2ccccc2nc1Nc1ccc(F)cc1    NCI-H226 lung     > 100 µM
 5  COc1cc(S(=O)(=O)Nc2nc(-c3ccc(N)cc3)cs2)ccc1Cl    NCI-H226 lung     > 100 µM
 6  COc1ccc(-c2cc(-c3cn[nH]c3-c3ccccn3)ccn2)cc1    NCI-H226 lung      > 25 µM
 7  COc1ccc([C@H]2C=C(c3cc(F)c(Cl)cc3Cl)NC(=S)N2)cc1    NCI-H226 lung     > 100 µM
 8              Nc1nc(N)c2c(ccc3nccc32)[nH]1    NCI-H226 lung    > 88.9 µM
 9  Nc1nnc(N)n1NC(=O)C(=O)Nc1ccc([N+](=O)[O-])cc1    NCI-H226 lung     > 100 µM
10  CCC[CH2][Ge]([CH2]CCC)([CH2]CCC)[O]C(=O)C(O)c1ccccc1 (stereo unspecified)    NCI-H226 lung      27.9 µM

###

- Test system: SF-268 CNS
- ASSAY_PROCEDURE: NCI tumour cell line growth inhibition, 48 h
As shown below, each of these molecules has a reported TGI value.
MEASURE: TGI

>>> df
                               query_smiles  measure  measurement
0    OCc1ccc2c(c1)CC1(C2)Cc2cc3c(cc2C1)CCC3      TGI     > 100 µM
1      COc1ccc2oc(=O)c3c(c2c1C)OC(C)(C)C=C3      TGI     > 100 µM
2  COc1ccc2c(c1)sc1nc(-c3ccccc3)c(-c3ccc(O)c(OC)c3)n12      TGI     > 100 µM
3  COc1ccc([C@H]2C=C(c3cc(F)c(Cl)cc3Cl)NC(=S)N2)cc1      TGI     > 100 µM
4            CC(=O)Nc1ccccc1-c1cnc2ccccc2n1      TGI     > 100 µM
5  CC1(C)CC(OCCCC[P+](c2ccccc2)(c2ccccc2)c2ccccc2)CC(C)(C)N1O      TGI      1.88 µM

###

- Tested on: SN12C renal
- ASSAY_PROCEDURE: NCI tumour cell line growth inhibition, 48 h; in the data active means GI50 below about 0.43 µM; inactive means the rest
Classes used: YES (active), NO (inactive)

>>> df
                                    compound  cat
 0              Nc1nc(N)c2c(ccc3nccc32)[nH]1   NO
 1  O=C(Nc1ccccc1)NS(=O)(=O)c1ccc(N2N=C3c4ccccc4CC3C2c2ccccn2)cc1 (stereo unspecified)   NO
 2  COc1ccc(/C=C/C(=O)c2ccc3cc(OC)c(OC)cc3c2)cc1OC   NO
 3  CC1(C)CC(OCCCC[P+](c2ccccc2)(c2ccccc2)c2ccccc2)CC(C)(C)N1O  YES
 4  ClC1=NC(Cl)C(Cl)=N/C1=N\c1ncn[nH]1 (stereo unspecified)   NO
 5      COc1cc(Cn2ccc3c2-c2oncc2CC3)cc(OC)c1   NO
 6  COC(=O)c1ccc2c(c1)C(=O)c1c-2n(CCCN)c(=O)c2cc([N+](=O)[O-])ccc12  YES
 7                       N#CSCc1c(Cl)cccc1Cl   NO
 8  COc1cccc(-n2ncc3c(N/N=C/c4ccc(S(C)(=O)=O)cc4)ncnc32)c1   NO
 9  CC1(C)N=C(N)N=C(N)N1c1cccc(CCCCc2ccccc2)c1   NO
10  CCOC(=O)Cn1c(C)c(/C=N/NC(=O)c2cc3c(ccc4ccccc43)o2)c2ccccc21   NO

###

- Test system: RXF-631 renal
- ASSAY_PROCEDURE: NCI tumour cell line growth inhibition, 48 h
As shown below, each of these compounds has a reported TGI value.
MEASURE: TGI

In [3]: df
Out[3]:
                                   compound  measurement
0               O=C(/C=C/c1ccccc1O)c1cccnc1     > 100 µM
1  COc1cc([C@@H]2c3cc4c(cc3[C@@H](NCc3ccccc3)C3COC(=O)[C@@H]32)OCO4)cc(OC)c1O (some centres undefined)      30.2 µM
2  CC1=C(C(=O)CC(=O)C(=O)Nc2ccccc2)Sc2ccccc2N1     > 100 µM
3  CC(C)(C)OC(=O)NC1CCC[C@H]1O (some centres undefined)     > 100 µM
4  Cc1ccc(C2(O)CC(c3ccc([N+](=O)[O-])o3)=NN2C(=O)COc2ccccc2Cl)cc1 (centres undefined)    > 55.1 µM
5  CC(=O)C1C(=O)C(=O)N(c2ccccc2N2C(=O)C(=O)C(C(C)=O)C2=O)C1=O (centres undefined)     > 100 µM
6  COc1ccc2nc(NC(=O)C(=O)C(C(=O)c3ccccc3-c3ccccc3)C3OC(=O)c4ccccc43)sc2c1 (centres undefined)      71.6 µM
7  Cc1c(C(=O)/C=C/c2ccccc2Cl)[n+](=O)c2ccccc2n1[O-]      36.5 µM
8  COC(=O)c1c2c(c(-c3ccccc3)c3c1-c1nc(Cl)ccc1CC3)CCc1ccc(Cl)nc1-2     > 100 µM

###

- System: HS 578T breast
- ASSAY_PROCEDURE: NCI tumour cell line growth inhibition, 48 h
As shown below, each of these molecules has a reported log10(TGI) value.
MEASURE: log10(TGI) (log10 of the value in µM)

In [3]: df
Out[3]:
                                query_smiles     measure  measurement
 0          CC(C)Oc1ccc(CNC2=NCCO2)c2ccccc12  log10(TGI)         1.51
 1  CC1(C)CC(OCCCC[P+](c2ccccc2)(c2ccccc2)c2ccccc2)CC(C)(C)N1O  log10(TGI)         0.01
 2      COc1cc(Cn2ccc3c2-c2oncc2CC3)cc(OC)c1  log10(TGI)         1.09
 3  CN(C)C(=O)c1cc2cnc(Nc3ccc(-c4csc5c(=O)cc(N6CCNCC6)oc45)cc3)nc2n1C1CCCC1  log10(TGI)         0.64
 4  CCN(CC)CCCOc1cc(O)c2c(=O)cc(-c3ccccc3)oc2c1  log10(TGI)         1.41
 5  CC(C)=C[C@@H]1C[C@H](C)c2c(O)cc(C)c3c2C1=C(C)C(=O)C3=O  log10(TGI)         1.62
 6      c1ccc(N=c2sc3ccccc3sc2=Nc2ccccc2)cc1  log10(TGI)         0.88
 7                       N#CSCc1c(Cl)cccc1Cl  log10(TGI)         0.92
 8  CC(C)[Si](OC1=C(C(=O)N(C)c2ccccc2Cl)CCCC1)(C(C)C)C(C)C  log10(TGI)         1.49
 9            Cc1cc2c3ccccc3ccc2[n+]2ccccc12  log10(TGI)         1.24
10   Cc1cc(N(CCCCl)CCCCl)ccc1C=Nc1cccc(Cl)c1  log10(TGI)         1.56
